- Test system: tnp seedlings
- protocol.details: Penetrance of the tnp phenotype in seedlings germinated and grown on medium containing the compound
- Assay type: in vivo, Arabidopsis thaliana
- particulars: Table 2 second series (1/2MS10 control 47.8); 100 nM
Marks after values point to notes of the source that are not given here.
Measured % tnp values are reported for all entries that follow.
recorded.endpoint: % tnp

>  <molecule>
C=C1C[C@]23C[C@@]1(O)CC[C@H]2[C@@]12C=C[C@H](O)[C@@](C)(C(=O)O1)[C@H]2[C@@H]3C(=O)O [GA, gibberellic acid]

>  <assayed.target>
tnp seedlings

>  <observed.result>
52%

$$$$
>  <molecule>
c1ccc(CNc2ncnc3nc[nH]c23)cc1 [BA, N(6)-benzyladenine]

>  <assayed.target>
tnp seedlings

>  <observed.result>
35.6%

$$$$
>  <molecule>
O=C(O)COc1ccc(Cl)cc1Cl [2,4-D, 2,4-dichlorophenoxyacetic acid]

>  <assayed.target>
tnp seedlings

>  <observed.result>
95.3%

$$$$
>  <molecule>
CC(C)(C)[C@@H](O)[C@@H](Cc1ccc(Cl)cc1)n1cncn1 (racemic) [Paclobutrazol, paclobutrazol]

>  <assayed.target>
tnp seedlings

>  <observed.result>
72.3* %

$$$$
